Values compiled from patent US20210038587A1.

Avg (Mcl1) values for the compounds below.
- Test system: MIAPaCa-2
- method: Reverse Phase Protein Analysis (RPPA); also: test concentration or dose not given here
- Format: cell-based
- runParameters: MIAPaca2; % change from DMSO (matched cell line)
Report as a plain number; the unit % is understood.

Answered examples (3):
{"compound": "Cc1cnc(Nc2ccc(F)cc2Cl)nc1-c1c[nH]c(C(=O)N[C@H](CO)c2cccc(Cl)c2)c1 [Vx-11e]", "target": "MIAPaCa-2", "unitAbbrev": "%", "Avg (Mcl1)": "−6.58"}
{"compound": "CC(C)Nc1cc(-c2c[nH]c(C(=O)N[C@H](CO)c3cccc(Cl)c3)c2)c(Cl)cn1", "target": "MIAPaCa-2", "unitAbbrev": "%", "Avg (Mcl1)": "−7.27"}
{"compound": "O=C(Nc1ccc2[nH]nc(-c3ccncc3)c2c1)[C@@H]1CCN(CC(=O)N2CCN(c3ccc(-c4ncccn4)cc3)CC2)C1", "target": "MIAPaCa-2", "unitAbbrev": "%", "Avg (Mcl1)": "−1.88"}

Next item in the queue.
Could you tell me which Avg (Mcl1) is on file for Cn1nccc1Nc1nccc(-c2ccn([C@H](CO)c3ccc(Cl)c(F)c3)c(=O)c2)n1 ?
−1.79

====

- System: HT29
- method: Reverse Phase Protein Analysis (RPPA)
- Type: cell-based
- runParameters: % change from DMSO (matched cell line)
attributeMeasured: Avg (p90 RSK S380) (%)
Provide only the numeric value, understood in %.

Below, each entry is followed by its recorded Avg (p90 RSK S380) result.
{"compound": "O=C(Nc1ccc2[nH]nc(-c3ccncc3)c2c1)[C@@H]1CCN(CC(=O)N2CCN(c3ccc(-c4ncccn4)cc3)CC2)C1 [SCH772984]", "measuredNumber": "−53.88"}
{"compound": "Cn1nccc1Nc1nccc(-c2ccn([C@H](CO)c3ccc(Cl)c(F)c3)c(=O)c2)n1 [GDC-0994]", "measuredNumber": "−30.59"}
{"compound": "CC(C)Nc1cc(-c2c[nH]c(C(=O)N[C@H](CO)c3cccc(Cl)c3)c2)c(Cl)cn1 [BVD-523]", "measuredNumber": "−60.5"}

# ---- query compound ----
Which Avg (p90 RSK S380) is reported for this compound? Cc1cnc(Nc2ccc(F)cc2Cl)nc1-c1c[nH]c(C(=O)N[C@H](CO)c2cccc(Cl)c2)c1 [Vx-11e]
−43.41

====

Catalogue of Avg (Chk1) values
- Tested on: AN3Ca
- method: Reverse Phase Protein Analysis (RPPA)
- Type: cell-based
- runParameters: % change from DMSO (matched cell line)
Note: unit % is implicit; provide only the numeric part.

Some solved entries appear below for comparison.
{"molecule": "Cn1nccc1Nc1nccc(-c2ccn([C@H](CO)c3ccc(Cl)c(F)c3)c(=O)c2)n1", "attributeMeasured": "Avg (Chk1)", "measuredNumber": 9.43}
{"molecule": "Cc1cnc(Nc2ccc(F)cc2Cl)nc1-c1c[nH]c(C(=O)N[C@H](CO)c2cccc(Cl)c2)c1 [Vx-11e]", "attributeMeasured": "Avg (Chk1)", "measuredNumber": "−0.46"}

// lookup Avg (Chk1) for CC(C)Nc1cc(-c2c[nH]c(C(=O)N[C@H](CO)c3cccc(Cl)c3)c2)c(Cl)cn1
−8.45

What about this molecule? O=C(Nc1ccc2[nH]nc(-c3ccncc3)c2c1)[C@@H]1CCN(CC(=O)N2CCN(c3ccc(-c4ncccn4)cc3)CC2)C1
1.35

====

As shown below, each of these compounds has a reported Avg (Cyclin D1) value.
- Tested on: Colo205
- method: Reverse Phase Protein Analysis (RPPA)
- Type: cell-based, human
- runParameters: % change from DMSO (matched cell line)
Number in %, nothing else.

Example cases with answers are listed next.
{"compound": "Cn1nccc1Nc1nccc(-c2ccn([C@H](CO)c3ccc(Cl)c(F)c3)c(=O)c2)n1 [GDC-0994]", "Avg (Cyclin D1) / %": "−28.02"}
{"compound": "O=C(Nc1ccc2[nH]nc(-c3ccncc3)c2c1)[C@@H]1CCN(CC(=O)N2CCN(c3ccc(-c4ncccn4)cc3)CC2)C1 [SCH772984]", "Avg (Cyclin D1) / %": "−36.7"}
{"compound": "Cc1cnc(Nc2ccc(F)cc2Cl)nc1-c1c[nH]c(C(=O)N[C@H](CO)c2cccc(Cl)c2)c1 [Vx-11e]", "Avg (Cyclin D1) / %": "−39.79"}

Here is another compound to look at.
Recorded Avg (Cyclin D1) for CC(C)Nc1cc(-c2c[nH]c(C(=O)N[C@H](CO)c3cccc(Cl)c3)c2)c(Cl)cn1 [BVD-523] , please?
−23.65

====

- Test system: HCT116
- method: Reverse Phase Protein Analysis (RPPA)
- Assay type: cell-based, human
- runParameters: % change from DMSO (matched cell line)
attributeMeasured: Avg (4ebp1 T70)

{"compound": "CC(C)Nc1cc(-c2c[nH]c(C(=O)N[C@H](CO)c3cccc(Cl)c3)c2)c(Cl)cn1 [BVD-523]", "Avg (4ebp1 T70)": "4.03%"}
{"compound": "Cn1nccc1Nc1nccc(-c2ccn([C@H](CO)c3ccc(Cl)c(F)c3)c(=O)c2)n1 [GDC-0994]", "Avg (4ebp1 T70)": "20.5%"}

As a next step, examine the compound that follows.
Consider the compound shown here: O=C(Nc1ccc2[nH]nc(-c3ccncc3)c2c1)[C@@H]1CCN(CC(=O)N2CCN(c3ccc(-c4ncccn4)cc3)CC2)C1 [SCH772984] What is its recorded Avg (4ebp1 T70)?
5.6%
